protocol.details: Spontaneous decomposition in solution (h.p.l.c. / nmr)
Assay type: physicochemical
condition.parameters: aqueous solution; read-out: half life in aqueous solution (converted)
Description: This instability prevented full characterisation of the acid (I), so it was converted with diazomethane to its methyl ester (IV) in an overall yield of 16% from the benzyl ester (II) (A.G. Brown et al, J. Chem. Soc. Perkin Trans. I, 1984, 635). The spectral data obtained for the methyl ester (IV) were indistinguishable from those obtained by A. G. Brown et al 1984. […]
metric: half-life

Given item O=CC=C1OC2CC(=O)N2C1C(=O)O (stereo not shown) [Compound (I)] , the value recorded as its half-life is ~30 min
